Experiment: chemical genetic growth profiling, strain panel (AID 1159580);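 further: tested at 20 µM; growth read once vehicle control cultures reached saturation at 30 °C; 1 = growth at the plate median or of vehicle wells; lower values mean less growth of the strain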
Details: S. cerevisiae deletion strains, growth OD, locus YAL040C, strain CLN3, stronger effect = lower value
Out of some 5,500 compounds screened, about 2,000 (36%) were called active. Not shown: some 18% with an inconclusive outcome. The list shows a part of the results.
QUANTITY MEASURED: normalized growth
Give the value as a plain number.

Prompt line: Which normalized growth reading was recorded for the molecule "Clc1ccc(N2CCN(Cc3c[nH]c4ncccc34)CC2)cc1" ?
Response line: 1.08

* * *

Assay: chemical genetic growth profiling, strain panel (AID 1159580)
Details: S. cerevisiae deletion strains, growth OD, locus YLR262C, strain YPT6
Among all 5,500 compounds or so, about 2,000 (36%) were called active. Another 18% or so got no clear call; they are omitted. Rule as the data show it: active = normalized growth mostly below about 0.91 (no sharp cut-off); inconclusive = no clear call, values can overlap the other calls; inactive = mostly above about 0.92. Some of the results follow.
Allowed answers: True (active), False (inactive)

Below, 3 molecules whose answers are already recorded.
- MOLECULE: "O=C(O)C1(O)C[C@@H](O)C(O)[C@H](O)C1 (stereo not given in full)"
  ASSIGNED CATEGORY: "False"
- MOLECULE: "CN(C)C(=S)SSC(=S)N(C)C"
  ASSIGNED CATEGORY: "True"
- MOLECULE: "Cc1cccc(C)c1OCC(C)N (stereo not given)"
  ASSIGNED CATEGORY: "False"

Prompt line: Returns: the outcome recorded for "COC1=CC(=O)C[C@@H](C)[C@]12Oc1c(Cl)c(OC)cc(OC)c1C2=O" in this assay.
Response line: False

Prompt line: Another molecule to check: "COc1cc2c(cc1OC)CC(=O)OC2"
Response line: False

Prompt line: Another molecule to check: "COc1cc2c(cc1OC)C(=O)OC2"
Response line: False

Prompt line: Another molecule to check: "Cc1ccc(C)c(NC(=S)N(CCc2ccccc2)CCc2ccccn2)c1"
Response line: False

Prompt line: Another molecule to check: CC(NCCc1ccc(O)cc1)C(O)c1ccc(O)cc1 (stereo not given)
Response line: False

Prompt line: Another molecule to check: "Cc1ccc(NC(=S)NNC(C)(C)C)cc1"
Response line: True

Prompt line: Another molecule to check: CCCCCCCCNC(C)C(O)c1ccc(SC(C)C)cc1 (stereo not given)
Response line: True

Prompt line: Another molecule to check: "NC(=O)c1ccc[n+]([C@@H]2O[C@H](COP(=O)([O-])OP(=O)(O)OC[C@H]3O[C@@H](n4cnc5c(N)ncnc54)[C@H](O)[C@@H]3O)[C@@H](O)[C@H]2O)c1"
Response line: False

* * *

Experiment: chemical genetic growth profiling, strain panel (AID 1159580);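 further: tested at 20 µM; growth read once vehicle control cultures reached saturation at 30 °C; 1 = growth at the plate median or of vehicle wells; lower values mean less growth of the strain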
Details: S. cerevisiae deletion strains, growth OD, locus YGL248W, strain PDE1, stronger effect = lower value
About 2,000 (36%) of roughly 5,500 compounds were called active. Not shown: some 18% with an inconclusive outcome. The list shows a part of the results.
Quick reference: normalized growth of the listed items.
Give the value as a plain number.

Please review the following examples before continuing.
- COMPOUND: "CC(C(=O)O)c1cccc(Oc2ccccc2)c1 (configuration not stated)"
  RECORDED VALUE: 0.974
- COMPOUND: "COC1=CC(=O)C[C@@H](C)[C@]12Oc1c(Cl)c(OC)cc(OC)c1C2=O"
  RECORDED VALUE: 1.01
- COMPOUND: "CC1(C)C(C=C(Cl)Cl)C1C(=O)OC(C#N)c1cccc(Oc2ccccc2)c1 (configuration not stated)"
  RECORDED VALUE: 0.983

Prompt line: Which normalized growth reading was recorded for the compound C[C@]12CCC(=O)C=C1CCC1C2CC[C@@]2(C)C1CC[C@@H]2O (some centres not stated) ?
Response line: 1.02

Prompt line: Another compound to check: "CCN(CC)CCNC(=O)c1cc(Br)c(N)cc1OC"
Response line: 0.971

Prompt line: Another compound to check: "CNCCc1ccccn1"
Response line: 1

Prompt line: Another compound to check: CCN(CCO)CCCC(C)Nc1ccnc2cc(Cl)ccc12 (configuration not stated)
Response line: 0.993

Prompt line: Another compound to check: "O=C(O)c1c2ccccc2cc2ccccc12"
Response line: 1.02

Prompt line: Another compound to check: "CN1CCC(=C2c3ccccc3Sc3ccccc32)CC1"
Response line: 1

Prompt line: Another compound to check: CO[C@H]1[C@H](O)[C@H](O[C@H]2CC[C@]3(C)C4CC[C@]5(C)C(C6=CC(=O)OC6)CC[C@]5(O)C4CC[C@@H]3C2)O[C@@H](C)[C@@H]1O (some centres not stated)
Response line: 1.01

Prompt line: Another compound to check: "CN1CCC(=C2c3ccccc3CC(=O)c3sccc32)CC1"
Response line: 1.01

Prompt line: Another compound to check: "CCOC(=O)C(C)(C)Oc1ccc(Cl)cc1"
Response line: 1.01

Prompt line: Another compound to check: CCC(=O)O[C@H]1CCC2C3CCC4=CC(=O)CC[C@]4(C)C3CC[C@@]21C (some centres not stated)
Response line: 0.916

Prompt line: Another compound to check: CC(Oc1ccccc1)C(=O)N[C@@H]1C(=O)N2[C@@H]1SC(C)(C)[C@@H]2C(=O)O (some centres not stated)
Response line: 1.01

* * *

Quick reference: normalized growth of the listed items.
Test: chemical genetic growth profiling, strain panel (AID 1159580);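 further: tested at 20 µM; growth read once vehicle control cultures reached saturation at 30 °C; 1 = growth at the plate median or of vehicle wells; lower values mean less growth of the strain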
Settings: S. cerevisiae deletion strains, growth OD, locus YPR167C, strain met16, stronger effect = lower value
Out of some 5,500 compounds screened, about 2,000 (36%) were called active. Inconclusive results (about 18%) are left out. Some of the results follow.
Give the value as a plain number.

Please review the following examples before continuing.
- COMPOUND: "COc1cc2c(cc1OC)Cc1cc(OC)c(OC)cc1Cc1cc(OC)c(OC)cc1C2"
  QUANTITY MEASURED: "normalized growth"
  RECORDED VALUE: 1.03
- COMPOUND: "Cc1c(O)c(C(=O)CC(C)C)c2oc3c(C(=O)CC(C)C)c(O)c(C)c(O)c3c2c1O"
  QUANTITY MEASURED: "normalized growth"
  RECORDED VALUE: 1
- COMPOUND: "COc1ccc2c(c1)O[C@@H]1COc3cc(OC)c(OC)cc3[C@@H]1C2=O"
  QUANTITY MEASURED: "normalized growth"
  RECORDED VALUE: 0.886
- COMPOUND: "CC(Oc1ccccc1)C(=O)N[C@@H]1C(=O)N2[C@@H]1SC(C)(C)[C@@H]2C(=O)O (stereo not given in full)"
  QUANTITY MEASURED: "normalized growth"
  RECORDED VALUE: 1.02
- COMPOUND: "CN(C)c1ccc(C(=C2C=CC(=[N+](C)C)C=C2)c2ccc(N(C)C)cc2)cc1"
  QUANTITY MEASURED: "normalized growth"
  RECORDED VALUE: 0.49

Prompt line: Which normalized growth reading was recorded for the compound "COP(=O)(OC)OC=C(Cl)Cl" ?
Response line: 0.976

Prompt line: Another compound to check: "CCC(=O)O[C@H]1[C@H](O[C@@H]2[C@@H](C)[C@H](O[C@H]3C[C@@](C)(OC)[C@@H](O)[C@H](C)O3)[C@@H](C)C(=O)O[C@H](CC)[C@@](C)(O)[C@H](O)[C@@H](C)C(=O)[C@H](C)C[C@@]2(C)O)O[C@H](C)C[C@@H]1N(C)C"
Response line: 0.994

Prompt line: Another compound to check: "O=C1C=CC(=C(c2ccc(O)cc2)c2ccc(O)cc2)C=C1"
Response line: 0.991

Prompt line: Another compound to check: C[C@H]1CC2C([C@@H](O)C[C@@]3(C)C2CC[C@]3(O)C(=O)CO)[C@@]2(C)C=CC(=O)C=C12 (stereo not given in full)
Response line: 1.01

Prompt line: Another compound to check: "COc1cc2c(cc1OC)C(=O)OC2"
Response line: 1

* * *

Assay: chemical genetic growth profiling, strain panel (AID 1159580);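 further: tested at 20 µM; growth read once vehicle control cultures reached saturation at 30 °C; 1 = growth at the plate median or of vehicle wells; lower values mean less growth of the strain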
Conditions: S. cerevisiae deletion strains, growth OD, locus YPR119W, strain clb2, stronger effect = lower value
Hit rate of the full screen: of about 5,500 compounds, about 2,000 (36%) were called active. Inconclusive results (about 18%) are left out. Some of the results follow.
QUANTITY MEASURED: normalized growth
Give the value as a plain number.

- COMPOUND: "CC(=O)OCC(=O)[C@@]1(O)CCC2C3CCC4=CC(=O)CC[C@]4(C)C3C(=O)C[C@@]21C (stereo partly specified)"
  normalized growth: 1.03
- COMPOUND: "CCS(=O)CCSP(=O)(OC)OC (stereo unspecified)"
  normalized growth: 1.01
- COMPOUND: "CC(=O)OCC(=O)[C@H]1CCC2C3CCC4=CC(=O)CC[C@]4(C)C3CC[C@@]21C (stereo partly specified)"
  normalized growth: 0.948
- COMPOUND: "COC1=CC(=O)C[C@@H](C)[C@]12Oc1c(Cl)c(OC)cc(OC)c1C2=O"
  normalized growth: 0.99
- COMPOUND: "NCCSSCCN"
  normalized growth: 1.01

Prompt line: Which normalized growth reading was recorded for the compound "CN(C)CC/C=C1\c2ccccc2Sc2ccc(Cl)cc21" ?
Response line: 1.03
